meta.source: paper PMC7400108

biological target: E. coli PBP1b (Escherichia coli, UniProt P02919); construct: PBP1bγ(M46-N844) was purified as previously described; made in house; assay: GTase inhibition assay: residual activity and IC50 of PBP1b (radioactive lipid II endpoint TLC assay, dansyl-lipid II continuous fluorescence assay); format: biochemical; details: compound 0.4 mM (400 µM); compared to nontreated control; mean of three experiments ± s.d.
Sequence (P02919 46-844): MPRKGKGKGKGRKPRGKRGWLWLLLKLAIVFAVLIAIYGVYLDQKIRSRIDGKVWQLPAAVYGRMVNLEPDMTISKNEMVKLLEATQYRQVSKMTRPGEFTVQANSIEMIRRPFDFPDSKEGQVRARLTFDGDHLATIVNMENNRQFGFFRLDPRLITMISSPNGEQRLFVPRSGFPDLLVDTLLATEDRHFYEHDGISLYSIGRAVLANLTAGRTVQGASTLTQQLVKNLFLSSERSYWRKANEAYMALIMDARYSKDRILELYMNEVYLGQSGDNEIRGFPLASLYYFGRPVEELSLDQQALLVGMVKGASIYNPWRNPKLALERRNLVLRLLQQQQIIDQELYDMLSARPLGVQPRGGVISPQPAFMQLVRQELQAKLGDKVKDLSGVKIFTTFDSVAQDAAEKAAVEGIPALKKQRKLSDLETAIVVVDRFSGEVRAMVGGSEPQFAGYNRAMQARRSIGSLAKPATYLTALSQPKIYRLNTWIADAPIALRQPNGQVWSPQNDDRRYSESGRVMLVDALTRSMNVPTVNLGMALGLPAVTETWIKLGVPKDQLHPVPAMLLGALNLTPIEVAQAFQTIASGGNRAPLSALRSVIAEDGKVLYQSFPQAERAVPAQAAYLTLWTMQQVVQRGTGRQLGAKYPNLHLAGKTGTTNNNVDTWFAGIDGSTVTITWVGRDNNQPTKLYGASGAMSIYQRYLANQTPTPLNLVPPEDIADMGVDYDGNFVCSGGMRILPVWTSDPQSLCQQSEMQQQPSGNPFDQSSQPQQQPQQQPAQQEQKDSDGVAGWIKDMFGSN
Quick list: RA % (0.4 mM), residual GTase activity of PBP1b per entry.
READOUT_NAME: RA % (0.4 mM), residual GTase activity of PBP1b

{"columns": ["COMPOUND", "MEASURED_TARGET", "VAL"],
 "data": [
  ["CC(C)CCC[C@@H](C)[C@H]1CCC2C3C(CC[C@@]21C)[C@@]1(C)CC[C@H](O)CC1=C[C@@H]3NCCCNCCCCNCCCN (stereo partly drawn) [Compound 3]", "E. coli PBP1b (Escherichia coli, UniProt P02919)", "16 ± 2%"],
  ["CC(C)CCC[C@@H](C)[C@H]1CCC2C3C[C@@H](NCCCCN)C4C[C@@H](O)CC[C@]4(C)C3CC[C@@]21C (stereo partly drawn) [Compound 5, 6β-(1,4-diaminobutane)-cholestan-3β-ol]", "E. coli PBP1b (Escherichia coli, UniProt P02919)", "16 ± 1.4%"],
  ["CC(C)CCCC(C)C1CCC2C3C(NCCCCN)C=C4CC(O)CCC4(C)C3CCC12C (stereo not drawn) [Compound 2]", "E. coli PBP1b (Escherichia coli, UniProt P02919)", "1.2 ± 0.3%"],
  ["CC(C)[C@@H](CC[C@@H](C)[C@H]1CC[C@H]2[C@@H]3[C@H](O)C[C@H]4C[C@@H](NCCCNCCCCN)CC[C@]4(C)[C@H]3CC[C@]12C)OS(=O)(=O)O [Squalamine (1), Squalamine]", "E. coli PBP1b (Escherichia coli, UniProt P02919)", "6 ± 2%"],
  ["CC(C)CCC[C@@H](C)[C@H]1CCC2C3C[C@@H](NCCCNCCCCNCCCN)C4C[C@@H](O)CC[C@]4(C)C3CC[C@@]21C (stereo partly drawn) [Compound 6, 6β-(spermine)-cholestan-3β-ol]", "E. coli PBP1b (Escherichia coli, UniProt P02919)", "3.9 ± 0.1%"],
  ["CC(C)CCC[C@@H](C)[C@H]1CCC2C3C(CC[C@@]21C)[C@@]1(C)CC[C@H](O)CC1C[C@@H]3NCCCN (stereo partly drawn) [Compound 4]", "E. coli PBP1b (Escherichia coli, UniProt P02919)", "39 ± 2%"]
]}

====

Quick list: remaining activity at 800 µM per entry.
target: E. coli PBP1b (Escherichia coli, UniProt P02919); construct: PBP1bγ(M46-N844) was purified as previously described; made in house; assay: GTase inhibition assay: residual activity and IC50 of PBP1b (radioactive lipid II endpoint TLC assay, dansyl-lipid II continuous fluorescence assay); assay type: biochemical; conditions: read-out: RA % (0.8 mM), residual GTase activity of PBP1b, compound 0.8 mM (800 µM); compared to nontreated control; mean of three experiments ± s.d.
READOUT_NAME: remaining activity at 800 µM (%)

{"columns": ["COMPOUND", "MEASURED_TARGET", "VAL"],
 "data": [
  ["C[C@H](NCCCCN)[C@H]1CCC2C3CCC4=C[C@@H](NCCCCN)CC[C@]4(C)C3CC[C@@]21C (some centres unmarked)", "E. coli PBP1b (Escherichia coli, UniProt P02919)", 100],
  ["CC(C)CCC[C@@H](C)[C@H]1CCC2C3C(CC[C@@]21C)[C@@]1(C)CC[C@H](O)CC1=C[C@@H]3NCCCNCCCCNCCCN (some centres unmarked)", "E. coli PBP1b (Escherichia coli, UniProt P02919)", 8.5],
  ["CC(C)CCC[C@@H](C)[C@H]1CCC2C3C[C@@H](NCCCNCCCCNCCCN)C4C[C@@H](O)CC[C@]4(C)C3CC[C@@]21C (stereo partly drawn) [Compound 6, 6β-(spermine)-cholestan-3β-ol]", "E. coli PBP1b (Escherichia coli, UniProt P02919)", 0.8],
  ["CC(C)CCC[C@@H](C)[C@H]1CCC2C3C[C@@H](NCCCCN)C4C[C@@H](O)CC[C@]4(C)C3CC[C@@]21C (some centres unmarked)", "E. coli PBP1b (Escherichia coli, UniProt P02919)", 3],
  ["CC(=O)[C@H]1CC[C@H]2[C@@H]3CCC4=CC(=O)CC[C@]4(C)[C@H]3CC[C@]12C [Compound 12, progesterone, reference compound]", "E. coli PBP1b (Escherichia coli, UniProt P02919)", 98],
  ["CC(C)CCC[C@@H](C)[C@H]1CCC2C3C(CC[C@@]21C)[C@@]1(C)CC[C@H](O)CC1C[C@@H]3NCCCN (some centres unmarked)", "E. coli PBP1b (Escherichia coli, UniProt P02919)", 4],
  ["CC(C)[C@@H](CC[C@@H](C)[C@H]1CC[C@H]2[C@@H]3[C@H](O)C[C@H]4C[C@@H](NCCCNCCCCN)CC[C@]4(C)[C@H]3CC[C@]12C)OS(=O)(=O)O", "E. coli PBP1b (Escherichia coli, UniProt P02919)", 1.1],
  ["C[C@]12CCC3c4ccc(O)cc4CCC3C1CC[C@@H]2NCCCCN (some centres unmarked)", "E. coli PBP1b (Escherichia coli, UniProt P02919)", 105]
]}

====

target: E. coli PBP1b (Escherichia coli, UniProt P02919); construct: PBP1bγ(M46-N844) was purified as previously described; made in house; assay: GTase inhibition assay: residual activity and IC50 of PBP1b (radioactive lipid II endpoint TLC assay, dansyl-lipid II continuous fluorescence assay); format: biochemical; conditions: variable inhibitor concentrations 0-1000 µM; mean of three experiments ± s.d.; read-out: IC50, GTase activity of PBP1b

{"columns": ["COMPOUND", "IC50"],
 "data": [
  ["CC(C)CCC[C@@H](C)[C@H]1CCC2C3C(CC[C@@]21C)[C@@]1(C)CC[C@H](O)CC1C[C@@H]3NCCCN (some centres unmarked)", "303 µM"],
  ["CC(C)CCC[C@@H](C)[C@H]1CCC2C3C[C@@H](NCCCCN)C4C[C@@H](O)CC[C@]4(C)C3CC[C@@]21C (some centres unmarked)", "221 µM"],
  ["CC(C)CCCC(C)C1CCC2C3C(NCCCCN)C=C4CC(O)CCC4(C)C3CCC12C (centres unmarked)", "114 µM"],
  ["CC(C)[C@@H](CC[C@@H](C)[C@H]1CC[C@H]2[C@@H]3[C@H](O)C[C@H]4C[C@@H](NCCCNCCCCN)CC[C@]4(C)[C@H]3CC[C@]12C)OS(=O)(=O)O", "291 µM"],
  ["CC(C)CCC[C@@H](C)[C@H]1CCC2C3C(CC[C@@]21C)[C@@]1(C)CC[C@H](O)CC1=C[C@@H]3NCCCNCCCCNCCCN (some centres unmarked)", "220 µM"]
]}
